- TARGET DESC: T1, human monocyte chemo-attractant protein-1 (MCP-1) (human, UniProt P13500 24-99)
- T1 construct: 76-residue recombinant protein from E. coli, bought (PeproTech); also called hMCP-1(MCAF); human MCP-1
- T1 sequence (P13500 24-99): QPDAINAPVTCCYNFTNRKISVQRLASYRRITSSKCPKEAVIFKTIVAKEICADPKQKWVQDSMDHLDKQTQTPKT
- ASSAY: ELISA, coated antigen
Examples of binders with documented ELISA OD follow.
Report the value in OD450 with no unit label.

Query: Answer with the recorded ELISA OD of anti-MCP-1 mAb 1.1.1 (antibody, human IgG2, kappa, V domains shown) VH: QVQLVQSGAEVKKPGASVKVSCKVSGYTLTELSMHWVRQAPGNGLEWMGGFDPEDGETIYAQRFQGRVVMTEDPSTDTAYMELSSLRSEDTAVYYCATNEFWSGYFDYWGQGTLVTVSS VL: DIVMTQSPDSLAMSLGERATINCKSSQSVLYSSNNKNYLVWYQQKPGQPPKLLIYWASIRESGVPDRFSSSGSETDFTLTISSLQAEDVAVYYCQQYFSSPWTFGQGTKVEIKR only.
Reply: 0.944

Query: Answer with the recorded ELISA OD of anti-MCP-1 mAb 1.2.1 (antibody, V domains shown) VH: QVQLVQSGAEVKKPGASVKVSCKVSGYTFTELSMHWVRQAPGKGLEWMGGFDPEDGETSYAQKFRGRVTMTEDTSTDTAHMELSSLRSEDTAVYYCATNDFWSGYFDYWGQGTLVTVSS VL: DIQMTQSPSSVSASVGDRVTITCRASQGIDIYLAWYQQKPGKAPKLLINAASSLQNGVPSRFGGSGSGTDFTLTISGLQPEDFATYYCQLTYFFPWTFGQGTKVEIKR only.
Reply: 1.16

Query: Answer with the recorded ELISA OD of anti-MCP-1 mAb 1.11.1 (antibody, V domains shown) VH: QVQVVQSGAEVKNPGASVKVSCKVSGSTLTELSMHWVRQAPGKGLEWMGGFDPEDGETIYAQKFQGRVTMTEDTSTDTVYMELSSLRSEDTAVYYCATNDFWSGYFDYWGQGTLVTVSS VL: DIVMTQSPDSLAVSLGERATITCKSSQTVLYSSNNKNYLVWYQQKSGQPPKLLIHWASIRESGVPDRFSGSGSGTDFTLTISSLQAEDVAVYYCQQYYSSPWTFGQGTKVEIKR only.
Reply: 1.34

Reference source for all entries: patent US20050058639A1
